Values were extracted from the kinase profiling compilation of Christmann-Franck et al. (2016).

- test_system: STK16 (human) (UniProt O75716)
- Sequence (O75716 whole entry, looked up): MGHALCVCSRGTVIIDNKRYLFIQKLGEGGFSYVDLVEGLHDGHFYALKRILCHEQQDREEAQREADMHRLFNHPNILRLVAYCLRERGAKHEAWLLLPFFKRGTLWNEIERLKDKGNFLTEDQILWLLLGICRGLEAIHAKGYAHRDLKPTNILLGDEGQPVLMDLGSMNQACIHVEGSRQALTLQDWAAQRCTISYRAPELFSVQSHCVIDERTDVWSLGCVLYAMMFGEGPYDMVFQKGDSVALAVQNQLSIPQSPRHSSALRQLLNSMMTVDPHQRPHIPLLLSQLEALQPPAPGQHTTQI
pKd: −log10 of the molar value.
reported_metric: pKd

INSERT INTO measurements (smiles_notation, test_system, measured_value) VALUES
  ('Cc1ccc(-c2c(/C=C(\C#N)C(=O)NC(C)C)n(CCCO)c3ncnc(N)c23)cc1', 'STK16 (human) (UniProt O75716)', 6.64);

---

- test_system: RPS6KA6 KD2 (human) (UniProt Q9UK32)
- Sequence (Q9UK32 whole entry, looked up): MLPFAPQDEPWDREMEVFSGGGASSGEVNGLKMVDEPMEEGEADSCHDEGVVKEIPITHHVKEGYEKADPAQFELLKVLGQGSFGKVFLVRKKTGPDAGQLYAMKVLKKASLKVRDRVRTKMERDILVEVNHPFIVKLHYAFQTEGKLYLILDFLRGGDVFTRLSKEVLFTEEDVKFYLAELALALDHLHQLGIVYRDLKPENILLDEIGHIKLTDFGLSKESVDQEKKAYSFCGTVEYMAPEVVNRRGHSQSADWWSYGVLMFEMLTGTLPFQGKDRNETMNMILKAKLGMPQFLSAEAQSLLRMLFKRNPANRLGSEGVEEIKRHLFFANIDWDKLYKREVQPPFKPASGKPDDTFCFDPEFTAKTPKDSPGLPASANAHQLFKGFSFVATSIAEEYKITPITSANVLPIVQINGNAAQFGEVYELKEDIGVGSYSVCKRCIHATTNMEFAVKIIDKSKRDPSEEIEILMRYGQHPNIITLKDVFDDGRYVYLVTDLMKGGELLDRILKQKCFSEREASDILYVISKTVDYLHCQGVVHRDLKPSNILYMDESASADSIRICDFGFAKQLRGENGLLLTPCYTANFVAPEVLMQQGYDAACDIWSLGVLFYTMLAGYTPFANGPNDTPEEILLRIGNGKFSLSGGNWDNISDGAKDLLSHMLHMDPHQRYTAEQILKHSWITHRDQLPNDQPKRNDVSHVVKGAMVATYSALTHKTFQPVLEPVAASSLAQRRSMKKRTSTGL
reported_metric: Kd (nM)

INSERT INTO results (smiles_notation, test_system, measured_value) VALUES
  ('Cc1ccc(-c2c(/C=C(\C#N)C(=O)NC(C)C)n(CCCO)c3ncnc(N)c23)cc1', 'RPS6KA6 KD2 (human) (UniProt Q9UK32)', 1.2);

---

- test_system: MAP2K5 (human) (UniProt Q13163)
reported_metric: Kd (nM)

INSERT INTO assay_data (smiles_notation, quantity_unit, measured_value) VALUES
  ('Cc1ccc(-c2c(/C=C(\C#N)C(=O)NC(C)C)n(CCCO)c3ncnc(N)c23)cc1', 'nM', 2300);

---

- test_system: PDGFRB (human) (UniProt P09619)
- Sequence (P09619 whole entry, looked up): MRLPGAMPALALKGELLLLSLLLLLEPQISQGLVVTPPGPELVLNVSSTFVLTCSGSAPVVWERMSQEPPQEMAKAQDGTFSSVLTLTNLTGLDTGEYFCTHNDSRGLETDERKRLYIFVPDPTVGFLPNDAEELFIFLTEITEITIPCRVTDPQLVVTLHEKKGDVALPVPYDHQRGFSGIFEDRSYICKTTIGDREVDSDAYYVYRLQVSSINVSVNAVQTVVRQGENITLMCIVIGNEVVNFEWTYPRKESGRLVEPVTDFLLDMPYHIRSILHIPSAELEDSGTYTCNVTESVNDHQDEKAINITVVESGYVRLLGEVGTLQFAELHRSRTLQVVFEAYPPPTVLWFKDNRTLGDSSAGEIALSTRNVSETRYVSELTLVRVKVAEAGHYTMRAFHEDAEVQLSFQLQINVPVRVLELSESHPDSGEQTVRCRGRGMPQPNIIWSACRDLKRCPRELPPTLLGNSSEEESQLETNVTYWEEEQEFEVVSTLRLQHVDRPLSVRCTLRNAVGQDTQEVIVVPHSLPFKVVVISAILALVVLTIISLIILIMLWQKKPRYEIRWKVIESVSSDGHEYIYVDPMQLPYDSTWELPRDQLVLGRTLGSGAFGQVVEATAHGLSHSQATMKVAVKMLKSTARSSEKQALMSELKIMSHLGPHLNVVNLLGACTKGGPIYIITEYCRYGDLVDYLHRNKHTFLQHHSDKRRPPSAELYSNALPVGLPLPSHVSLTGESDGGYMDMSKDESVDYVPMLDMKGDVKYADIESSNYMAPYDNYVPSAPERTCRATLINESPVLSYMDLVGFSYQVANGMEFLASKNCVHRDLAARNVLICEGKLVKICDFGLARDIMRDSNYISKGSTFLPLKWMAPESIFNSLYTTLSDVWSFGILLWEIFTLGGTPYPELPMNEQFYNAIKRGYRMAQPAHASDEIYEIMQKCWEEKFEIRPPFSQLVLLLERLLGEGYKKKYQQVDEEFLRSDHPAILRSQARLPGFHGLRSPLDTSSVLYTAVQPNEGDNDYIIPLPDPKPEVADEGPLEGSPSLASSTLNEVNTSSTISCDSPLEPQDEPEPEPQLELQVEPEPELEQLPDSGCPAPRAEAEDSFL
pKd: −log10 of the molar value.
reported_metric: pKd

INSERT INTO results (smiles_notation, reported_metric, measured_value) VALUES
  ('Cc1ccc(-c2c(/C=C(\C#N)C(=O)NC(C)C)n(CCCO)c3ncnc(N)c23)cc1', 'pKd', 5.55);

---

- test_system: MAP3K1 (human) (UniProt Q13233)
- Sequence (Q13233 whole entry, looked up): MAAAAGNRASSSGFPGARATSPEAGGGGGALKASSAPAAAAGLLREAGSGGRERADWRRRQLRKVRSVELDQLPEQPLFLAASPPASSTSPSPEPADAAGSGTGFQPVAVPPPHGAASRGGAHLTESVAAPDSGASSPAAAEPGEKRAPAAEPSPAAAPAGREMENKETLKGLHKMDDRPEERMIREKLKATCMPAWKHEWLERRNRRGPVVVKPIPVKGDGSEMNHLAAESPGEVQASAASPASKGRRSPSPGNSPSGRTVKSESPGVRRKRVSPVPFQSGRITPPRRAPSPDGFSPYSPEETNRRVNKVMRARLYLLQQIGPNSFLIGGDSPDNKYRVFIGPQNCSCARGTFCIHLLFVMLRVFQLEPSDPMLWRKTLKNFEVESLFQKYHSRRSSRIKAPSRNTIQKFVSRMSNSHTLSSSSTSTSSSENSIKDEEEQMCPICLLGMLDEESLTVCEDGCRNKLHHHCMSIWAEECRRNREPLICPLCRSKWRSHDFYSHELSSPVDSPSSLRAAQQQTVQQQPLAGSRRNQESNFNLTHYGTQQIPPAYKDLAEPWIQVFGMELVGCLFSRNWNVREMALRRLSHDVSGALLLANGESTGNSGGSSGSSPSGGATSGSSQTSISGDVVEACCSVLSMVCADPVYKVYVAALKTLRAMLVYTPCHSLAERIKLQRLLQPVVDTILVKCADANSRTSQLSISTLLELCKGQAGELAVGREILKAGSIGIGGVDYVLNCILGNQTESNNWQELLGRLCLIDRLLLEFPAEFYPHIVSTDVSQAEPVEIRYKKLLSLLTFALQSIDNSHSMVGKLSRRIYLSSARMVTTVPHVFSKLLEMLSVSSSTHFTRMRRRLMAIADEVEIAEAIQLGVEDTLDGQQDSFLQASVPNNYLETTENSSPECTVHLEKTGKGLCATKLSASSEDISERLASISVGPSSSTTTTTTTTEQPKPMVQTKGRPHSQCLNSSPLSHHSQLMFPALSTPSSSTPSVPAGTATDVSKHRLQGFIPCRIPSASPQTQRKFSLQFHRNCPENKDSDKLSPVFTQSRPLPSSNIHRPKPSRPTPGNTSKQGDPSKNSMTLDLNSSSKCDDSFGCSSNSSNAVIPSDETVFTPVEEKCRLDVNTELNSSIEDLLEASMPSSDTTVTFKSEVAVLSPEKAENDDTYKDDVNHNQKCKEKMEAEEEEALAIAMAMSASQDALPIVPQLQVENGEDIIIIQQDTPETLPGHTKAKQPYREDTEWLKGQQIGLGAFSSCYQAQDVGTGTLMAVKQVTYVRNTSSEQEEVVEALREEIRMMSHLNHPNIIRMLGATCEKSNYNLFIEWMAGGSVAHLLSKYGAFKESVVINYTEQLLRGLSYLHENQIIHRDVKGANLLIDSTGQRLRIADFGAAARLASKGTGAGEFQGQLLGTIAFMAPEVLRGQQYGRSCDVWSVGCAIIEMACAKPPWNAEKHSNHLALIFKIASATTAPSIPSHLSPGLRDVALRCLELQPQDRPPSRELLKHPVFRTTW
pKd: −log10 of the molar value.
reported_metric: pKd

INSERT INTO results (smiles_notation, reported_metric, measured_value) VALUES
  ('Cc1ccc(-c2c(/C=C(\C#N)C(=O)NC(C)C)n(CCCO)c3ncnc(N)c23)cc1', 'pKd', 7.35);

---

- test_system: RET (human) (UniProt P07949)
- Sequence (P07949 whole entry, looked up): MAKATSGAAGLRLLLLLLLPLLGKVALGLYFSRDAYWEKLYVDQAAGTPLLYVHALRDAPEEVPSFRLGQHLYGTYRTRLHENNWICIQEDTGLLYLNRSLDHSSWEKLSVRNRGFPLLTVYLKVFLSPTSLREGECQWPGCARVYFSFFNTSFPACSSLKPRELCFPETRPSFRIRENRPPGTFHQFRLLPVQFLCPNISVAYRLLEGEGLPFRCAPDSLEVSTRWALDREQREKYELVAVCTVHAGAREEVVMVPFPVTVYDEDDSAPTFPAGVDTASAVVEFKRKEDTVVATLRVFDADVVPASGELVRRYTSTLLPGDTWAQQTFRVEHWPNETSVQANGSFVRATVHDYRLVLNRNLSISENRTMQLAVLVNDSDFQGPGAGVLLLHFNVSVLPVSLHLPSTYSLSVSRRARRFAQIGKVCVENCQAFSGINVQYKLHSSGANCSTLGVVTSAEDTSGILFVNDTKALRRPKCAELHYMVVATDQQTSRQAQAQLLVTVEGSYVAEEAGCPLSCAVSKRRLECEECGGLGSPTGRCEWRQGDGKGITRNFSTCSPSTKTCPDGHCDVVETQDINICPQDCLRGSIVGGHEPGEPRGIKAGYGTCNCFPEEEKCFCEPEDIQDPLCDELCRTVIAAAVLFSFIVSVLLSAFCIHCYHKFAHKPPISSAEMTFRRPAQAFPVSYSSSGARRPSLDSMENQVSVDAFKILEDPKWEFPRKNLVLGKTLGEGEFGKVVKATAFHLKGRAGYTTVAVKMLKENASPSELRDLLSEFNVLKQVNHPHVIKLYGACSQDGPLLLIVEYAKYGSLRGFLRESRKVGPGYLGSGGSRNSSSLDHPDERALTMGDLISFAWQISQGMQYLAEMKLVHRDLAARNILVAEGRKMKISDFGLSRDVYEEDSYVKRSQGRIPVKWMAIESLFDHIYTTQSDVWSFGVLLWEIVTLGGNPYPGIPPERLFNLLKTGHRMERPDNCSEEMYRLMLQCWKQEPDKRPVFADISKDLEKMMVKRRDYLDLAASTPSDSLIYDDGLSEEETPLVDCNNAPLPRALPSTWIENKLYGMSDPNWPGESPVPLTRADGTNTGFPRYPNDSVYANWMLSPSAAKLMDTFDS
- assay_notes: KINOMEscan competition binding
reported_metric: Kd (nM)

INSERT INTO assay_data (smiles_notation, reported_metric, measured_value) VALUES
  ('Cc1ccc(-c2c(/C=C(\C#N)C(=O)NC(C)C)n(CCCO)c3ncnc(N)c23)cc1', 'Kd', 360);
